# target.desc: AKT1 (Homo sapiens)
# Sequence (P31749 whole entry): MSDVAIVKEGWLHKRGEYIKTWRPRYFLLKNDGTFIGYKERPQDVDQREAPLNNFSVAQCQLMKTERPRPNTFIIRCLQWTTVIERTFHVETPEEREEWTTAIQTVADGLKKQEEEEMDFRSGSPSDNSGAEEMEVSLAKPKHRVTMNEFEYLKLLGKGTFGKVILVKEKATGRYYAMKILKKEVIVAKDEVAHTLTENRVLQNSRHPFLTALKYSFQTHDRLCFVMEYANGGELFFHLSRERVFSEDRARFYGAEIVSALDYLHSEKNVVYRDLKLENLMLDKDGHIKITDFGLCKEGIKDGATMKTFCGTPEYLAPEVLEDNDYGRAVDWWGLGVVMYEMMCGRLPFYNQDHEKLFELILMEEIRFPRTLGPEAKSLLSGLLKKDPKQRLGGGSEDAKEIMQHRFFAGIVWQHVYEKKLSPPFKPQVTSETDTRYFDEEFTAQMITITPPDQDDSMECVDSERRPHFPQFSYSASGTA
# procedure.text: HOTSPOT radiometric kinase assay
# test.settings: read-out: AKT1 IC50; 10 μM ATP
observed.property: IC50 (nM)

Cn1cncc1C1=CN(c2ncnc3nc[nH]c23)CCS1	179

---

# target.desc: DYRK3 (Homo sapiens)
# Construct: purchased Reaction Biology Corp
# procedure.text: HOTSPOT radiometric kinase assay
# Assay type: biochemical
# test.settings: 10 μM ATP; read-out: DYRK3 IC50
observed.property: IC50

Cn1cncc1C1=CN(c2ncnc3nc[nH]c23)CCS1	202 nM

---

# target.desc: DYRK3 (Homo sapiens, UniProt O43781)
# Construct: purchased Reaction Biology Corp
# Sequence (O43781 whole entry): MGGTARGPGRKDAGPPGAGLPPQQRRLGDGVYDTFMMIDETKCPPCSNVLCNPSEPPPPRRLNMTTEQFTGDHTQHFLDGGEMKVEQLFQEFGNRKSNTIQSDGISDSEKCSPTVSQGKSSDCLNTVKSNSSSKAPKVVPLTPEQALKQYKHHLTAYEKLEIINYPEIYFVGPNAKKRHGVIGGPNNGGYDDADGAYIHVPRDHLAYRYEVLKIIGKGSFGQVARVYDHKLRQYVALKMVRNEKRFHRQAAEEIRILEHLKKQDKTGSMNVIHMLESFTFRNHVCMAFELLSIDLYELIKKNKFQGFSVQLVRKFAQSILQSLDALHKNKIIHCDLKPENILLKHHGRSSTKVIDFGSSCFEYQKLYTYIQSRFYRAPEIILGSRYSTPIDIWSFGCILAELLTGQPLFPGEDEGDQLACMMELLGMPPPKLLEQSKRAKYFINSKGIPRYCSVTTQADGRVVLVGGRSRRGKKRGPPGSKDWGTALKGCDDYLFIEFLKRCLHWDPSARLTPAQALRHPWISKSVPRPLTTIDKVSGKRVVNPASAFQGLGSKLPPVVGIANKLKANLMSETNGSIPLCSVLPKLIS
# procedure.text: HOTSPOT radiometric kinase assay
# Assay type: biochemical
# test.settings: Table 4 dose-response; read-out: DYRK3 IC50 Values
observed.property: IC50

Cn1cncc1C1=CN(c2ncnc3nc[nH]c23)CCS1 [Compound 1, Aplithianine A]	218 nM
